# System: human ABCB11 mRNA
# Assay: ASO treatment of primary human hepatocytes (PHH), ABCB11 mRNA by RT-qPCR normalized to B2M
# Assay type: cell-based
# Assay Setup: primary human hepatocytes, 5 μM ASO, normalized to untreated PHHs (UNT)
Strand notation (5' to 3'): a small letter for the sugar, then the base; units joined by * are phosphorothioate-linked, units joined directly phosphodiester-linked; [ ] holds rarer units or linkages, { } end groups; capitals alone tell only the bases. e = 2'-O-(2-methoxyethyl) (MOE); [5mC] = 5-methylcytosine
Measurement Kind: ABCB11 mRNA FC (5 μM ASO vs. UNT)

Exercise: Recorded ABCB11 mRNA FC (5 μM ASO vs. UNT) for CO-7052 (antisense eT*e[5mC]*eA*e[5mC]*e[5mC]*eT*eT*eG*eG*eT*eT*e[5mC]*e[5mC]*e[5mC]*e[5mC]*e[5mC]*eT*eG*e[5mC]*eT) , please?
Key: 1.046 fold change

Exercise: Recorded ABCB11 mRNA FC (5 μM ASO vs. UNT) for CO-7036 (antisense eG*eT*eA*e[5mC]*eA*eT*eT*eT*eA*eG*eA*eG*eA*e[5mC]*eA*eA*eA*eG*eA*eA) , please?
Key: 1.129 fold change

Exercise: Recorded ABCB11 mRNA FC (5 μM ASO vs. UNT) for CO-4481 (antisense e[5mC]*eA*eT*e[5mC]*eT*e[5mC]*eT*eG*eT*eG*eA*eA*eT*e[5mC]*eG*e[5mC]*eT*eA*eG*eT) , please?
Key: 1.18 fold change

Exercise: Recorded ABCB11 mRNA FC (5 μM ASO vs. UNT) for CO-6669 (antisense eG*eT*eT*eT*eA*eG*eT*eT*eG*eA*e[5mC]*eT*eG*e[5mC]*eA*eG*eA*eG*eG*eG) , please?
Key: 1.291 fold change

Exercise: Recorded ABCB11 mRNA FC (5 μM ASO vs. UNT) for CO-4487 (antisense eG*e[5mC]*eA*eA*eG*eG*eT*e[5mC]*e[5mC]*eA*eG*eG*eG*eT*eG*eT*eA*eT*eT*e[5mC]) , please?
Key: 1.052 fold change

Exercise: Recorded ABCB11 mRNA FC (5 μM ASO vs. UNT) for CO-4529: ASO targeting eRNA RR64 of human ABCB11 (antisense eG*eT*eG*eG*eA*eG*e[5mC]*eA*eA*eA*e[5mC]*eT*eA*eG*eG*e[5mC]eA*e[5mC]*eT*eG) , please?
Key: 1.05 fold change

----------
# Test system: human ABCB11 mRNA
# Assay: ASO treatment of primary human hepatocytes (PHH), ABCB11 mRNA by RT-qPCR normalized to B2M
# Assay type: cell-based
# Assay Setup: primary human hepatocytes, 5 μM ASO, normalized to untreated PHHs (UNT)
Strand notation (5' to 3'): a small letter for the sugar, then the base; units joined by * are phosphorothioate-linked, units joined directly phosphodiester-linked; [ ] holds rarer units or linkages, { } end groups; capitals alone tell only the bases. e = 2'-O-(2-methoxyethyl) (MOE); l = locked nucleic acid (LNA); [5mC] = 5-methylcytosine; d = 2'-deoxy (DNA)
Measurement Kind: ABCB11 mRNA FC (5 μM ASO vs. UNT) (fold change)
Give just the number in fold change; leave the unit off.

Exercise: Recorded ABCB11 mRNA FC (5 μM ASO vs. UNT) for CO-7187: derivative ASO with additional chemical modifications based on parent ASO CO-4535 (antisense eT*eG*eG*e[5mC]*lG*dT*dT*dA*lT*dT*dA*dA*lT*dT*d[5mC]*eT*lA*e[5mC]*eA*eG) , please?
Key: 1.544

Exercise: Recorded ABCB11 mRNA FC (5 μM ASO vs. UNT) for CO-4504 (antisense eG*eT*eG*eT*e[5mC]*eT*eA*eT*eT*eT*eG*eG*eT*eA*eT*e[5mC]*eA*eG*eA*e[5mC]) , please?
Key: 1.232

Exercise: Recorded ABCB11 mRNA FC (5 μM ASO vs. UNT) for CO-7208 (eT*eT*eT*eG*eG*e[5mC]*eG*eT*eT*eA*eT*eT*eA*eA*eT*eT*e[5mC]*eT*eA*e[5mC]*eA*eG*eA*eG; antisense) , please?
Key: 1.339

Exercise: Recorded ABCB11 mRNA FC (5 μM ASO vs. UNT) for CO-4062 (antisense eG*eA*e[5mC]*e[5mC]*eA*eA*eT*eG*eT*eT*eG*e[5mC]*e[5mC]*eT*eA*eT*eT*eA*eT*eT) , please?
Key: 1.108

Exercise: Recorded ABCB11 mRNA FC (5 μM ASO vs. UNT) for CO-6984 (antisense eT*eG*eA*eG*eG*eT*e[5mC]*eT*eA*eA*eT*eT*eT*eA*eG*eA*eA*eG*eA*e[5mC]) , please?
Key: 1.127

Exercise: Recorded ABCB11 mRNA FC (5 μM ASO vs. UNT) for CO-4482 (antisense eT*eA*eA*e[5mC]*eT*eG*eG*eG*eA*eG*eT*eA*eT*eA*eG*eA*eG*eG*eA*e[5mC]) , please?
Key: 1.001

----------
# Test system: human ABCB11 mRNA
# Assay: ASO treatment of primary human hepatocytes (PHH), ABCB11 mRNA by RT-qPCR normalized to B2M
# Assay type: cell-based
# Assay Setup: primary human hepatocytes, 5 μM ASO, normalized to untreated PHHs (UNT)
Strand notation (5' to 3'): a small letter for the sugar, then the base; units joined by * are phosphorothioate-linked, units joined directly phosphodiester-linked; [ ] holds rarer units or linkages, { } end groups; capitals alone tell only the bases. e = 2'-O-(2-methoxyethyl) (MOE); l = locked nucleic acid (LNA); [5mC] = 5-methylcytosine; d = 2'-deoxy (DNA)
Measurement Kind: ABCB11 mRNA FC (5 μM ASO vs. UNT) (fold change)
Give just the number in fold change; leave the unit off.

Exercise: Quick check: ABCB11 mRNA FC (5 μM ASO vs. UNT) on human ABCB11 mRNA, item CO-7105 (eT*eA*eT*e[5mC]*eT*dG*dG*lA*dA*dA*lA*dT*dA*lA*dT*dG*l[5mC]*d[5mC]*dT*eT*eT*e[5mC]*eT*eA; antisense) ?
Key: 1.002

Exercise: Quick check: ABCB11 mRNA FC (5 μM ASO vs. UNT) on human ABCB11 mRNA, item CO-4494 (antisense eG*e[5mC]*eA*eG*eG*eA*eT*eG*eA*eA*eG*eT*eT*eT*eA*e[5mC]*eA*eA*eG*eG) ?
Key: 1.12

Exercise: Quick check: ABCB11 mRNA FC (5 μM ASO vs. UNT) on human ABCB11 mRNA, item CO-7037 (antisense e[5mC]*eT*eG*eT*eA*e[5mC]*eA*eT*eT*eT*eA*eG*eA*eG*eA*e[5mC]*eA*eA*eA*eG) ?
Key: 1.136

Exercise: Quick check: ABCB11 mRNA FC (5 μM ASO vs. UNT) on human ABCB11 mRNA, item CO-7159 (antisense eG*eG*eA*eG*eG*eT*eG*eG*eA*eG*e[5mC]*eA*eA*eA*e[5mC]*eT*eA*eG*eG*e[5mC]) ?
Key: 1.326

Exercise: Quick check: ABCB11 mRNA FC (5 μM ASO vs. UNT) on human ABCB11 mRNA, item CO-7147 (antisense e[5mC]*eT*eT*eA*lG*eG*eA*eG*eG*lA*eT*eT*eA*eT*lT*eT*eA*eA*e[5mC]*e[5mC]) ?
Key: 1.272

----------
Provide the recorded ABCB11 mRNA FC (5 μM ASO vs. UNT) for the entries that follow.
# Test system: human ABCB11 mRNA
# Assay: ASO treatment of primary human hepatocytes (PHH), ABCB11 mRNA by RT-qPCR normalized to B2M
# Assay type: cell-based
# Assay Setup: primary human hepatocytes, 5 μM ASO, normalized to untreated PHHs (UNT)
Strand notation (5' to 3'): a small letter for the sugar, then the base; units joined by * are phosphorothioate-linked, units joined directly phosphodiester-linked; [ ] holds rarer units or linkages, { } end groups; capitals alone tell only the bases. e = 2'-O-(2-methoxyethyl) (MOE); l = locked nucleic acid (LNA); [5mC] = 5-methylcytosine; d = 2'-deoxy (DNA)
Give just the number in fold change; leave the unit off.

Exercise: Recorded ABCB11 mRNA FC (5 μM ASO vs. UNT) for CO-7022 (antisense eT*e[5mC]*eT*eG*eG*dA*dA*dA*dA*dT*dA*dA*dT*dG*d[5mC]*e[5mC]*eT*eT*eT*e[5mC]) , please?
Key: 1.224

Exercise: Recorded ABCB11 mRNA FC (5 μM ASO vs. UNT) for CO-3986: ASO targeting paRNA RR63 of human ABCB11 (antisense eT*eG*eT*eT*eT*eT*eG*e[5mC]*eT*eT*eG*eG*eT*e[5mC]*eA*eA*eG*eA*eG*eG) , please?
Key: 1.27

Exercise: Recorded ABCB11 mRNA FC (5 μM ASO vs. UNT) for CO-6990 (antisense eT*eG*lG*eA*eT*lG*eT*eA*lG*eA*eT*lG*eA*eA*lT*eG*eG*l[5mC]*eA*eA) , please?
Key: 1.16

Exercise: Recorded ABCB11 mRNA FC (5 μM ASO vs. UNT) for CO-7064 (eT*e[5mC]*eT*eG*lG*eA*eA*eA*lA*eT*eA*eA*lT*eG*e[5mC]*e[5mC]*lT*eT*eT*e[5mC]; antisense) , please?
Key: 1.017

Exercise: Recorded ABCB11 mRNA FC (5 μM ASO vs. UNT) for CO-7201 (eA*eG*eG*eT*eG*dG*dA*eG*d[5mC]*dA*eA*dA*d[5mC]*eT*dA*dG*eG*d[5mC]*dA*e[5mC]*eT*eG*eA*eG; antisense) , please?
Key: 1.253

Exercise: Recorded ABCB11 mRNA FC (5 μM ASO vs. UNT) for CO-4048 (antisense eA*eG*e[5mC]*eA*eT*e[5mC]*eT*eG*eG*eA*eT*e[5mC]*e[5mC]*eT*eG*e[5mC]*eA*eA*e[5mC]*e[5mC]) , please?
Key: 1.448

Exercise: Recorded ABCB11 mRNA FC (5 μM ASO vs. UNT) for CO-6971 (antisense eA*eT*eG*eG*eG*eT*eG*eT*eG*eG*eA*eT*eG*eT*eA*eG*eA*eT*eG*eA) , please?
Key: 1.091

Exercise: Recorded ABCB11 mRNA FC (5 μM ASO vs. UNT) for CO-6988 (antisense eT*eG*eG*lA*eT*lG*eT*lA*eG*lA*eT*lG*eA*lA*eT*lG*eG*l[5mC]*eA*eA) , please?
Key: 1.093

Exercise: Recorded ABCB11 mRNA FC (5 μM ASO vs. UNT) for CO-3995 (antisense eG*eT*e[5mC]*eT*eA*eG*eG*eA*eG*e[5mC]*eT*eT*e[5mC]*eT*eG*eT*eT*eT*eA*e[5mC]) , please?
Key: 1.683

Exercise: Recorded ABCB11 mRNA FC (5 μM ASO vs. UNT) for CO-4056 (antisense eG*e[5mC]*eT*eT*eA*eT*eT*eT*eG*eA*e[5mC]*eT*e[5mC]*eA*eA*eG*eA*e[5mC]*e[5mC]*eT) , please?
Key: 1.115

Exercise: Recorded ABCB11 mRNA FC (5 μM ASO vs. UNT) for CO-7171 (antisense eA*eG*eT*e[5mC]*eT*eT*eA*eT*eT*eT*eG*eG*e[5mC]*eG*eT*eT*eA*eT*eT*eA) , please?
Key: 1.46

Exercise: Recorded ABCB11 mRNA FC (5 μM ASO vs. UNT) for CO-4047 (antisense eG*e[5mC]*eA*eA*eT*e[5mC]*eT*eT*eT*eT*eA*eT*eA*eT*eT*eG*eA*eG*eG*eG) , please?
Key: 0.676

Exercise: Recorded ABCB11 mRNA FC (5 μM ASO vs. UNT) for CO-4022 (antisense eG*eA*eT*eG*eA*e[5mC]*eT*e[5mC]*eT*eT*eG*eG*eT*eT*eG*e[5mC]*eT*eG*eT*e[5mC]) , please?
Key: 1.168
